Molecular target: T1, hVEGF-A (8-109) (human, UniProt P15692 214-315)
T1 sequence (looked up): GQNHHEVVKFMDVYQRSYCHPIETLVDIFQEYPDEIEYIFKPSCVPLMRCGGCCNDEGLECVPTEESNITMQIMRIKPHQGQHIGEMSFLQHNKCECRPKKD
Assay: spot phage ELISA
MEASURE NAME: ELISA
Give the value as a plain number.

// query ELISA value for entry GCNIMLPFWGCGLDYDCLAGCVCQYYQSCG (designed binder) [VEGF_CKP9.54.2]
0.1

// query ELISA value for entry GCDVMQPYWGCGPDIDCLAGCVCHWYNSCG (designed binder, also called L2.9.63.12) [VEGF_CKP9.63.12]
2.6

// query ELISA value for entry GCGETVFEQFLWCKQDSDCLAGCVCGPNGFCG (designed binder) [VEGF_CKP2]
3.2

// query ELISA value for entry GCDVMQPYWGCGESLSCLAGCVCHWYNSCG (designed binder, also called L2.9.63.69) [VEGF_CKP9.63.69]
2.9

// query ELISA value for entry GCQLMQPFWGCKQDSDCLAGCVCRWYHSCG (designed binder) [VEGF_CKP9.L5.43]
0.9

Others:
// query ELISA value for entry GCQDPTFNWALYCKQDSDCLAGCVCQMYQSCG (designed binder) [VEGF_CKP7]
3.4

// query ELISA value for entry GCDVMQPYWGCGRDMDCLAGCVCHWYNSCG (designed binder, also called L2.9.63.27) [VEGF_CKP9.63.27]
2.1

These data points were gathered from patent US20200325187A1.
